target: human IL-13Rα2 on the surface of human tumour cell lines (human) (UniProt Q14627); test: FACS on A375 cells
Sequence (Q14627 27-380): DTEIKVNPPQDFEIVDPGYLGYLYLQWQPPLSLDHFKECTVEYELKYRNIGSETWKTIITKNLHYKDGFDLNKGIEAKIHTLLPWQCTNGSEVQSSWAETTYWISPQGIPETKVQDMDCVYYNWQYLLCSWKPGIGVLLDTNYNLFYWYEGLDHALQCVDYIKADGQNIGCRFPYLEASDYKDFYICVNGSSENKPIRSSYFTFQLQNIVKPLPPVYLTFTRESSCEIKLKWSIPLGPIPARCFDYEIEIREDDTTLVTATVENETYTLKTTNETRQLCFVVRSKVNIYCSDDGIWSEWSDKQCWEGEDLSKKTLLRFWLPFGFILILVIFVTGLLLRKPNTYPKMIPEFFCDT
Collected EC50 values appear next to each entry.
Your answer is read as nM, so omit the unit and give the number.

Below: 3 binders and their reported EC50.
| BINDER | UNITS_TEXT | NUMBER |
| --- | --- | --- |
| chimeric antibody ch08 (antibody, human IgG1, V domains shown) VH: EVQLVESGGDLVRPGGSLQLSCAASGFTFSRNGMSWVRQTPDRRLEWVATVSSGGSYIYYADSVKGRFTISRDNARNTLYLQMSSLKSEDTAMYYCARQGTTALATRFFDVWGAGTTVTVSS VL: DIVMTQSHKFISTSVGDRVSITCKASQDVGTAVAWYQQIPGQSPKLLIYSASYRSTGIPDRFTGSGSGTDFSFIISSVQAEDLALYYCQHHYSAPWTFGGGTTLDIK | nM | 5.64 |
| humanized antibody hu08 v1.1 HC/v1.1 LC (antibody, IgG1, V domains shown) VH: EVQLVESGGGLVQPGGSLRLSCAASGFTFSRNGMSWVRQTPDKRLEWVATVSSGGSYIYYADSVKGRFTISRDNAKNSLYLQMSSLRAEDTAVYYCARQGTTALATRFFDVWGQGTLVTVSS VL: DIQMTQSPSSLSASVGDRVTITCKASQDVGTAVAWYQQIPGKAPKLLIYSASYRSTGVPDRFSGSGSGTDFSFIISSLQPEDFATYYCQHHYSAPWTFGGGTKVEIK | nM | 5.16 |
| humanized antibody hu08 v1.0 HC/v1.1 LC (antibody, IgG1, V domains shown) VH: EVQLVESGGGLVQPGGSLRLSCAASGFTFSRNGMSWVRQAPGKGLEWVATVSSGGSYIYYADSVKGRFTISRDNAKNSLYLQMNSLRAEDTAVYYCARQGTTALATRFFDVWGQGTLVTVSS VL: DIQMTQSPSSLSASVGDRVTITCKASQDVGTAVAWYQQIPGKAPKLLIYSASYRSTGVPDRFSGSGSGTDFSFIISSLQPEDFATYYCQHHYSAPWTFGGGTKVEIK | nM | 6.52 |

Please look at the following binder next.
Which measured EC50 value corresponds to humanized antibody hu08 v1.1 HC/v1.0 LC (antibody, IgG1, V domains shown) VH: EVQLVESGGGLVQPGGSLRLSCAASGFTFSRNGMSWVRQTPDKRLEWVATVSSGGSYIYYADSVKGRFTISRDNAKNSLYLQMSSLRAEDTAVYYCARQGTTALATRFFDVWGQGTLVTVSS VL: DIQMTQSPSSLSASVGDRVTITCKASQDVGTAVAWYQQKPGKAPKLLIYSASYRSTGVPSRFSGSGSGTDFTLTISSLQPEDFATYYCQHHYSAPWTFGGGTKVEIK ? 4.15
